meta.source: patent US20230348616A1

Overview of reported standardized gMFI across a group of binders:
system.under.test: T1, 9A
T1 construct: also called HLA-A2 / point-mutant NY-ESO peptide 9A complex on T2 cells
procedure.text: flow cytometry on peptide-pulsed T2 cells, scFv 100 nM
Keep it simple and answer with nothing but the number.

# query: standardized gMFI of entry NYA-2035 (scFv) scFv: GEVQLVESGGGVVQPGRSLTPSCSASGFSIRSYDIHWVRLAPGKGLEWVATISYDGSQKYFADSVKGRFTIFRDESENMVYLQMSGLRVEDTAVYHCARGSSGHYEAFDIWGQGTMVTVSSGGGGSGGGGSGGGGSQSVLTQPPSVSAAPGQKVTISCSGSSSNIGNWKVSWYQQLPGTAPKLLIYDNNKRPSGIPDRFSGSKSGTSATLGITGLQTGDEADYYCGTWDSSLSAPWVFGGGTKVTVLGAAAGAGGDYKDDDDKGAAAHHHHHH
11.5

# query: standardized gMFI of entry NYA-1163 (scFv) scFv: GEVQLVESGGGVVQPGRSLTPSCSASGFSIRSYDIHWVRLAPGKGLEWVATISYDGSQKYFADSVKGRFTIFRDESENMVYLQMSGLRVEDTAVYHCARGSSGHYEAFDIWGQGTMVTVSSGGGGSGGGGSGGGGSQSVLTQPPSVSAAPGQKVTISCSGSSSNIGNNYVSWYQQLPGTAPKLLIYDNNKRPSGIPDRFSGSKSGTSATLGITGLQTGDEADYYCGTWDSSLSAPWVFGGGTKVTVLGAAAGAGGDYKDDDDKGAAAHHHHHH
4.01
